Tested on: MALME-3M melanoma
assay-overview: NCI-60 one-dose screen, 48 h (100 = growth as untreated, 0 = no growth, -100 = all killed)
condition-parameters: 10 µM unless noted
This is part of a sample that, as a whole, favours compounds with a hit. Of some 83,000 tested, about 20% had one in any assay.
Each item that follows carries a reported growth.
Give the number; % is assumed, so skip it.

molecule: Fc1ccc(-c2cn3c(nc4ccccc43)c(-c3ccccc3)n2)cc1
target-desc: MALME-3M melanoma
readout-number: 107
--
molecule: CNC(=O)c1cncc(Cn2nc(C)c(NC(=O)c3ccc(COc4ccc(C(F)(F)F)cc4C)cc3)c2C)c1
target-desc: MALME-3M melanoma
readout-number: 73.8
--
molecule: O=[N+]([O-])CC(c1ccccc1F)c1c[nH]c2ccccc12 (stereo unspecified)
target-desc: MALME-3M melanoma
readout-number: 66.9
--
molecule: CCCCCN1C=C/C(=C\C(=O)N(C)c2ccc(OC(F)(F)F)cc2)c2ccccc21
target-desc: MALME-3M melanoma
readout-number: 95.3
--
molecule: CN(C)CCC(=O)c1ccc([N+](=O)[O-])cc1
target-desc: MALME-3M melanoma
readout-number: 104
--
molecule: Cn1nc(CC#N)c2c(=N)n(N)cnc21
target-desc: MALME-3M melanoma
readout-number: 118
--
molecule: O=C(Cc1ccccc1)NNc1nc(Cl)nc(N2CCN(C(c3ccccc3)c3ccccc3)CC2)n1
target-desc: MALME-3M melanoma
readout-number: 99.6
--
molecule: N#C/C(=C\c1ccc(C(F)(F)F)cc1)c1cc2ccccc2[nH]1
target-desc: MALME-3M melanoma
readout-number: 103

Tell me its growth given COc1cc(/C=N/O)nc(-c2ccccn2)c1 as the entry.
6.48

Tell me its growth given CC(C)(C)[Si](C)(C)OC1[C@@H](O[Si](C)(C)C(C)(C)C)[C@@H](CNC(=O)NC(=O)CCl)O[C@H]1n1cnc2c(NC(=O)Nc3ccccc3)ncnc21 (stereo partly specified) as the entry.
-70.2

Tell me its growth given Cc1ccc(/C=C(/C#N)n2nnc3cccc(F)c32)cc1 as the entry.
36.3
